Sourced from the supplement of paper PMC11061612

Please provide measured combination Emax for the entries that follow.
System: NCI-H2023 (Non-Small Cell Lung Carcinoma)
Test: combination Emax (second highest fraction inhibited in the dose matrix, 72 h); higher = more inhibition; extreme values may be limits of the assay
Reply with just the number.

Incoming: Name the reported combination Emax value associated with the compound COc1cccc(OCCCN)c1-c1cc(Nc2cnc(C#N)cn2)n[nH]1 [Prexasertib] + CCc1c2c(nc3ccc(O)cc13)-c1cc3c(c(=O)n1C2)COC(=O)[C@]3(O)CC [SN-38] (first compound max 1 µM, 7x7, partner max 0.3 µM)
Outgoing: 0.783

Incoming: Look up combination Emax: CN(CCO)CC[C@H](CSc1ccccc1)Nc1ccc(S(=O)(=O)NC(=O)c2ccc(N3CCC([C@@H](O)c4ccccc4-c4ccc(Cl)cc4)CC3)cc2)cc1S(=O)(=O)C(F)(F)F [AZD4320] + CS(=O)(=O)CCNCc1ccc(-c2ccc3ncnc(Nc4ccc(OCc5cccc(F)c5)c(Cl)c4)c3c2)o1 [Lapatinib] (first compound max 1 µM, 7x7, partner max 10 µM)
Outgoing: 0.301

Incoming: Fill in the blank: the reported combination Emax of NC1(C(=O)N[C@@H](CCO)c2ccc(Cl)cc2)CCN(c2ncnc3[nH]ccc23)CC1 [Capivasertib] + COc1nnc2ccc(N3CCC(c4ccc(OCCN5CCN(C)C(=O)[C@H]5C)cc4)CC3)nn12 [AZD5153] (first compound max 10 µM, 7x7, partner max 1 µM) is ____.
Outgoing: 0.362

* * *

Test system: NTERA-2-cl-D1 (Other Solid Carcinomas)
Test: combination Emax (second highest fraction inhibited in the dose matrix, 72 h); higher = more inhibition; extreme values may be limits of the assay
I'd appreciate it if you could supply combination Emax values for the items below.
Give the value as a plain number.

Incoming: What does the data say about its combination Emax? Entry: Cc1c2c(nn1C)CSCc1cc(n(C)n1)CSc1cc(c3ccccc3c1)OCCCc1c(C(=O)O)n(C)c3c-2c(Cl)ccc13 [AZD5991] + CC1(C)CCC(CN2CCN(c3ccc(C(=O)NS(=O)(=O)c4ccc(NCC5CCOCC5)c([N+](=O)[O-])c4)c(Oc4cnc5[nH]ccc5c4)c3)CC2)=C(c2ccc(Cl)cc2)C1 [Venetoclax] (first compound max 1 µM, 7x7, partner max 1 µM)
Outgoing: 0.916

Incoming: I am curious: what combination Emax value has been reported for COc1cccc2c1C(=O)c1c(O)c3c(c(O)c1C2=O)C[C@@](O)(C(=O)CO)C[C@@H]3O[C@H]1C[C@H](N)[C@H](O)[C@H](C)O1 [Doxorubicin] + Cc1cc2ncnn2cc1Nc1ncc2c(n1)n(C1CCOCC1)c(=O)n2C [AZD7648] (first compound max 1 µM, 7x7, partner max 10 µM) ?
Outgoing: 1

* * *

System: C32 (Melanoma);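 also: after 72 h of two-drug dosing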
Test: Bliss excess, mean over the matrix (fraction); higher = more synergy
Give Bliss excess for every item shown.
Lab note: record just the number, no unit beside it.

Incoming: Looking for the measured Bliss excess of Cn1cnc2c(F)c(Nc3ccc(Br)cc3Cl)c(C(=O)NOCCO)cc21 [Selumetinib] + C=CCn1c(=O)c2cnc(Nc3ccc(N4CCN(C)CC4)cc3)nc2n1-c1cccc(C(C)(C)O)n1 [AZD1775] (first compound max 10 µM, partner max 1 µM) , can you help?
Outgoing: -0.0036

Incoming: Look up Bliss excess: Cc1cc2ncnn2cc1Nc1ncc2c(n1)n(C1CCOCC1)c(=O)n2C [AZD7648] + C[C@@H]1COCCN1C2=NC(=NC(=C2)C3(CC3)[S@](=N)(=O)C)C4=C5C=CNC5=NC=C4 [AZD6738] (first compound max 10 µM, 7x7, partner max 10 µM)
Outgoing: -0.0021

Incoming: Which Bliss excess reading was recorded for the compound O=C(c1cc(Cc2n[nH]c(=O)c3ccccc23)ccc1F)N1CCN(C(=O)C2CC2)CC1 [Olaparib] + COc1nnc2ccc(N3CCC(c4ccc(OCCN5CCN(C)C(=O)[C@H]5C)cc4)CC3)nn12 [AZD5153] (first compound max 10 µM, 7x7, partner max 1 µM) ?
Outgoing: -0.0595

Incoming: What does the data say about its Bliss excess? Entry: Cc1c2c(nn1C)CSCc1cc(n(C)n1)CSc1cc(c3ccccc3c1)OCCCc1c(C(=O)O)n(C)c3c-2c(Cl)ccc13 [AZD5991] + CCN(CCO)CCCOc1ccc2c(Nc3cc(CC(=O)Nc4cccc(F)c4)[nH]n3)ncnc2c1 [AZD2811] (first compound max 1 µM, 7x7, partner max 1 µM)
Outgoing: 0.05
